# ASSAYED_TARGET: Tubulin (Bos taurus, UniProt Q6B856+Q862L2+Q862F3)
# MEASUREMENT_PROTOCOL: Inhibition of bovine brain tubulin polymerization incubated for 60 mins by microplate reader based turbidimetry
compounds and their reported IC50
Express the result in µM but write the number alone.

Examples from the recorded data:
COc1ccc2c(c1)CC[C@H](O)/C2=C/c1cc(OC)c(OC)c(OC)c1
0.41
COc1ccc2c(c1)CCC(=O)/C2=C/c1cc(OC)c(OC)c(OC)c1
3.93

Proceed to the following item.
**Query** Which IC50 is listed for COc1ccc(/C=C2\c3cc(OC)c(OC)c(OC)c3CC[C@@H]2O)cc1F ?
**Result** 5.7

* * *

# ASSAYED_TARGET: Tubulin (Bos taurus, UniProt Q6B856+Q862L2+Q862F3)
# MEASUREMENT_PROTOCOL: Inhibition of bovine brain tubulin polymerization incubated for 60 mins by microplate reader based turbidimetry
VALUE_KIND: IC50

Before answering, review these 2 worked examples.
COc1ccc(/C=C2\c3cc(OC)c(OC)c(OC)c3CC[C@H]2O)cc1
> 10 µM
COc1ccc(/C=C2\c3cc(OC)c(OC)c(OC)c3CC[C@@H]2O)cc1
> 10 µM

Okay, next one:
**Query** IC50 for COc1ccc2c(c1)CC[C@@H](O)/C2=C/c1cc(OC)c(OC)c(OC)c1 ?
**Result** > 10 µM
